Readings of Population Membrane Permeable-Phenotype (%) for the listed compounds
Test system: Fibroblast
ASSAY_COMMENT: Multiplex assay against human fibroblast
Type: toxicity, cell-based
TEST_CONDITIONS: 12 h, 10 µM, compound concentration 10 uM, replicate 2
OBSERVATION_TYPE: Population Membrane Permeable-Phenotype (%)

COMPOUND | VALUE_OBSERVED
CN1CCN(CCOc2cc(OC3CCOCC3)c3c(Nc4c(Cl)ccc5c4OCO5)ncnc3c2)CC1 | 21
CN(C)C(=O)/C(C#N)=C/c1ccc(-c2nc3cnc4[nH]ccc4c3n2C2CCCCC2)o1 | 13
C=CC(=O)Nc1cccc(C(=O)Nc2ccc(Nc3cc(-c4[nH]c(SC)nc4C)ccn3)cc2)c1 | 7
COc1ccc(Oc2cc(NCCC(F)(F)F)c3ncc(-c4ccc(C(=O)NC5CC5)c(C)c4)n3n2)c(F)c1F | 20
C[C@@H](NCCCc1cccc(C(F)(F)F)c1)c1cccc2ccccc12.Cl [CINACALCET HYDROCHLORIDE] | 33
Cc1nc(-c2cn3c(n2)-c2ccc(-c4cnn(C(C)(C)C(N)=O)c4)cc2OCC3)n(C(C)C)n1 | 13
C=CC(=O)Nc1ccc2ncnc(Nc3ccc(OCc4cccc(F)c4)c(Cl)c3)c2c1.Cc1ccc(S(=O)(=O)O)cc1 | 4
CN(C)CC#Cc1ccc(OCCCc2sc(N3CCc4cccc(C(=O)Nc5nc6ccccc6s5)c4C3)nc2C(=O)O)c(F)c1 | 24
OC1(c2ccc(Cl)cc2)CCN(Cc2c[nH]c3ccccc23)CC1 | 4
Cl.N#Cc1ccc2[nH]cc(CCCCN3CCN(c4ccc5oc(C(N)=O)cc5c4)CC3)c2c1 [VILAZODONE HYDROCHLORIDE] | 38
COc1cc2nccc(Oc3ccc(NC(=O)Nc4cc(C)on4)c(Cl)c3)c2cc1OC.O | 36
COc1cc(-n2cnc3cc(-c4ccc(Cl)cc4)sc3c2=O)ccc1OCCN1CCCC1 | 34
CN1CCN(c2ccc(OC(F)(F)F)c(Nc3ncc4c(n3)-c3c(c(C(N)=O)nn3CCO)CC4)c2)CC1 | 0
Cc1[nH]c(/C=C2\C(=O)Nc3ccc(S(=O)(=O)N(C)c4cccc(Cl)c4)cc32)c(C)c1C(=O)N1CCN(C)CC1 | 40
CC[C@H](C)C(=O)O[C@H]1C[C@@H](C)C=C2C=C[C@H](C)[C@H](CC[C@@H]3C[C@@H](O)CC(=O)O3)[C@H]21 | 10
CN1CCCC(n2nc(Cc3ccc(Cl)cc3)c3ccccc3c2=O)CC1.Cl (configuration not stated) [AZELASTINE HYDROCHLORIDE] | 84
Cc1nc(Nc2n[nH]c3c2CN(C(=O)N[C@H](CN(C)C)c2ccccc2)C3(C)C)c2sccc2n1 | 0

====

Recorded Population Normal (%) for the following compounds
System: Fibroblast
ASSAY_COMMENT: Multiplex assay against human fibroblast
Format: toxicity, cell-based
TEST_CONDITIONS: 24 h, 1 µM, compound concentration 1 uM, replicate 1

COMPOUND | Population Normal (%)
CN1CCC[C@@H]1CCO[C@](C)(c1ccccc1)c1ccc(Cl)cc1.O=C(O)/C=C/C(=O)O [CLEMASTINE FUMARATE] | 67
CN1CCN(c2ccc(OC(F)(F)F)c(Nc3ncc4c(n3)-c3c(c(C(N)=O)nn3CCO)CC4)c2)CC1 | 75
O=C1NCN(c2ccccc2)C12CCN(CCCOc1ccc(F)cc1)CC2 [SPIRAMIDE] | 86
CN1CCCC(n2nc(Cc3ccc(Cl)cc3)c3ccccc3c2=O)CC1.Cl (stereo unspecified) [AZELASTINE HYDROCHLORIDE] | 89
COc1ncc(-c2ccc3nccc(-c4ccnnc4)c3c2)cc1NS(=O)(=O)c1ccc(F)cc1F | 89
CC(C)(O)CNc1ncc(-c2ccnc(Nc3ccnc(Cl)c3)n2)c(CC2CC2)n1 | 90
Cc1nc(Nc2n[nH]c3c2CN(C(=O)N[C@H](CN(C)C)c2ccccc2)C3(C)C)c2sccc2n1 | 83
Cc1nc(-c2ccc(-c3ccc(C(=O)N4CCc5cc6c(cc54)C4(CCN(C)CC4)CO6)cc3)c(C)c2)no1 | 85
Cc1[nH]c(/C=C2\C(=O)Nc3ccc(S(=O)(=O)N(C)c4cccc(Cl)c4)cc32)c(C)c1C(=O)N1CCN(C)CC1 | 96
CN1CCN(CCOc2cc(OC3CCOCC3)c3c(Nc4c(Cl)ccc5c4OCO5)ncnc3c2)CC1 | 87
C[C@@]1(C(=O)Nc2ccc(F)nc2)CCCN1c1nc(Nc2cc(C3CC3)n[nH]2)c2cccn2n1 | 90
C=CC(=O)Nc1cccc(C(=O)Nc2ccc(Nc3cc(-c4[nH]c(SC)nc4C)ccn3)cc2)c1 | 86
C=CC(=O)Nc1ccc2ncnc(Nc3ccc(OCc4cccc(F)c4)c(Cl)c3)c2c1.Cc1ccc(S(=O)(=O)O)cc1 | 90
COc1cc(-n2cnc3cc(-c4ccc(Cl)cc4)sc3c2=O)ccc1OCCN1CCCC1 | 82
C=CC(=O)Nc1cc2c(Nc3ccc(F)c(Cl)c3)ncnc2cc1OCCCN1CCOCC1.Cl.Cl [CANERTINIB DIHYDROCHLORIDE] | 58
COc1cccc([C@@H](C)NCCCc2ccccc2Cl)c1.Cl [TECALCET HYDROCHLORIDE] | 89

meta.source: ChEMBL document CHEMBL4689842
